assay: Mouse pharmacokinetics after oral gavage, plasma drug concentration by LC-MS/MS (C57BL/6); assay type: in vivo, C57bl/6 mice; settings: C57BL/6, 60 mg/kg, female mice
Decision: apparent oral clearance (CL/F) >= 90 mL/min/kg yields condition met, all other cases yield condition not met.

| record smiles | assigned category |
| --- | --- |
| CC1(C)CCN(C(=O)CCC(=O)N2Cc3ccccc3C[C@H]2C(=O)N[C@@H](CCN)C(=O)Nc2ccc(Cl)c(Cl)c2F)C1 | condition met |
| NCC[C@H](NC(=O)[C@@H]1Cc2ccccc2CN1C(=O)CCC(=O)c1ccccc1)C(=O)Nc1ccc2c(c1)CCC2 | condition not met |
| Cc1cc(NC(=O)[C@H](CC23CC(N)(C2)C3)NC(=O)[C@@H]2Cc3ccccc3CN2C(=O)CCC(=O)c2ccccc2)ccc1Cl | condition not met |
| Cc1c(Cl)ccc(NC(=O)[C@H](CCN)NC(=O)[C@@H]2Cc3ccccc3CN2C(=O)CCC(=O)N2CCCC23CCC3)c1Cl | condition met |
| Cc1c(Cl)cc(NC(=O)[C@H](CCN)NC(=O)[C@@H]2Cc3ccccc3CN2C(=O)CCC(=O)c2ccccc2)cc1Cl | condition met |

Below: the item to evaluate.
Enquiry: Could you tell me if the measured apparent oral clearance (CL/F) of `Cc1ccc(C(F)(F)F)c(NC(=O)[C@H](CCN)NC(=O)[C@@H]2Cc3ccccc3CN2C(=O)CCC(=O)c2ccccc2)c1` reaches 90 mL/min/kg or more?
Return: condition not met

====

assay: Mouse pharmacokinetics after oral gavage, plasma drug concentration by LC-MS/MS (C57BL/6); format: in vivo, C57bl/6 mice; details: mouse, plasma, C57BL/6, 60 mg/kg, female mice, read-out: AUC0-24
# log10(AUC(0-t)) annotations
Heads up, the numbers here are log10 of AUC(0-t) in µM·h units.

Reference set, count: 5
| record smiles | log10(AUC(0-t)) |
| --- | --- |
| NCC[C@H](NC(=O)[C@@H]1Cc2ccc(F)cc2CN1C(=O)CCC(=O)c1ccccc1)C(=O)Nc1ccc(Cl)c(Cl)c1F | 1.25 |
| Cc1cc(NC(=O)[C@H](CCN)NC(=O)[C@@H]2Cc3ccccc3CN2C(=O)CCC(=O)c2ccccc2)c(C#N)cc1Cl | 0.89 |
| Cc1c(Cl)ccc(NC(=O)[C@H](CCN)NC(=O)[C@@H]2Cc3ccccc3CN2C(=O)CCC(=O)N2CCCC23CCC3)c1Cl | 1.21 |
| Cc1cc(NC(=O)[C@H](CCN)NC(=O)[C@@H]2Cc3ccccc3CN2C(=O)CCC(=O)N2CCCC(C)(C)C2)ccc1Cl | 0.78 |
| Cc1ccc(C(F)(F)F)c(NC(=O)[C@H](CCN)NC(=O)[C@@H]2Cc3ccccc3CN2C(=O)CCC(=O)c2ccccc2)c1 | 1.89 |

Kindly consider the entry below.
Enquiry: Fill in: log10(AUC(0-t)) of `Cc1cc(NC(=O)[C@H](CCN)NC(=O)[C@@H]2Cc3ccccc3CN2C(=O)CCC(=O)c2ccccc2)c(OC(F)(F)F)cc1C` is ___
Return: 1.53

====

# pEC50 annotations
biological target: CXCR3 (Homo sapiens, UniProt P49682); construct: host or cells: CHO-K1 (cAMP Hunter CHOK1 CXCR3 Gi cell line); experiment: CXCR3 cAMP agonist assay (cAMP Hunter CHOK1 CXCR3 Gi cell line, forskolin-stimulated, HitHunter cAMP detection); format: cell-based; details: cAMP Hunter CHOK1 CXCR3 Gi cells, 20 μM forskolin, 30 minutes; read-out: Activity (CXCR3 cAMP agonist assay compound EC50)
pEC50: −log10 of the molar value.

Reference set, count: 5
| molecule | pEC50 |
| --- | --- |
| Cc1cc(NC(=O)[C@H](CCN)NC(=O)[C@@H]2Cc3ccccc3CN2C(=O)CCC(=O)c2ccccc2)ccc1C(F)(F)F | 6.60 to 7.30 |
| CC1(C)CCCN(C(=O)CCC(=O)N2Cc3cc(F)ccc3C[C@H]2C(=O)N[C@@H](CCN)C(=O)Nc2ccc(Cl)c(Cl)c2F)C1 | > 7.30 |
| NCC[C@H](NC(=O)[C@@H]1Cc2ccccc2CN1C(=O)CCC(=O)c1ccccc1)C(=O)Nc1cc(Cl)c(Cl)cc1O (racemic) | 6.60 to 7.30 |
| NCC[C@H](NC(=O)[C@@H]1Cc2ccccc2CN1C(=O)CCC(=O)c1ccccc1)C(=O)Nc1cc(Cl)cc(Cl)c1 | 6.60 to 7.30 |
| COc1c(NC(=O)[C@H](CCN)NC(=O)[C@@H]2Cc3ccccc3CN2C(=O)CCC(=O)c2ccccc2)ccc2c1CCCC2 | 6.60 to 7.30 |

Enquiry: Fill in: pEC50 of `CNCCCC[C@H](NC(=O)[C@@H]1Cc2ccccc2CN1C(=O)CCC(=O)c1ccccc1)C(=O)Nc1ccc(Cl)c(C)c1` is ___
Return: > 7.30

Enquiry: `NCC[C@H](NC(=O)[C@@H]1Cc2ccccc2CN1C(=O)CCC(=O)c1ccccc1)C(=O)Nc1ccc(Cl)cc1C(F)(F)F` ?
Return: 6.60 to 7.30

Enquiry: `NCC[C@H](NC(=O)[C@@H]1Cc2ccccc2CN1C(=O)CCC(=O)c1ccccc1)C(=O)Nc1ccc(F)c(F)c1` ?
Return: < 6.30

Enquiry: Cc1cc(NC(=O)[C@H](CCN)NC(=O)[C@@H]2Cc3ccccc3CN2C(=O)CCC(=O)N2CCCC(O)C2)ccc1Cl (stereo partly shown) ?
Return: > 7.30

Enquiry: `NCC[C@H](NC(=O)[C@@H]1Cc2ccccc2CN1C(=O)CCC(=O)N1CCC[C@H]1c1ccccc1)C(=O)Nc1ccc(Cl)c(Cl)c1F` ?
Return: > 7.30

Enquiry: `COc1ccccc1NC(=O)[C@H](CCCCN)NC(=O)[C@@H]1Cc2ccccc2CN1C(=O)CCC(=O)c1ccccc1` ?
Return: 6.30 to 6.60

====

# pEC50 annotations
Target: CXCR3 (Homo sapiens)
Construct: host or cells: CHO-K1 (cAMP Hunter CHOK1 CXCR3 Gi cell line)
Sequence (P49682 1-368): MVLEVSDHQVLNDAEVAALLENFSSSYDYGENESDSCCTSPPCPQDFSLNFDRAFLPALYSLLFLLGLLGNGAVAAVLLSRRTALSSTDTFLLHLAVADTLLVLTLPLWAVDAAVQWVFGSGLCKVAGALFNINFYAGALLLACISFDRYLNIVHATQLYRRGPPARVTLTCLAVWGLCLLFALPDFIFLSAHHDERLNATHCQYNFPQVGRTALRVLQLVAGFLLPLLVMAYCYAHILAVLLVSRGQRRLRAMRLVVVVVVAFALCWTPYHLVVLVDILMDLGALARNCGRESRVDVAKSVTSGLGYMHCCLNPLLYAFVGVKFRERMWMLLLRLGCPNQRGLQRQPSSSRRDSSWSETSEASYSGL
Experiment: CXCR3 cAMP agonist assay (cAMP Hunter CHOK1 CXCR3 Gi cell line, forskolin-stimulated, HitHunter cAMP detection)
Assay type: cell-based
Conditions: cAMP Hunter CHOK1 CXCR3 Gi cells, 20 μM forskolin, 30 minutes; read-out: Activity (CXCR3 cAMP agonist assay compound EC50)
pEC50: −log10 of the molar value.

| compound | pEC50 |
| --- | --- |
| Cc1cccc(NC(=O)[C@H](CCN2CCC(O)CC2)NC(=O)[C@@H]2Cc3ccccc3CN2C(=O)CCC(=O)c2ccccc2)c1Cl (racemic) [Compound 25-3] | 6.30 to 6.60 |
| CCN(C(=O)CCC(=O)N1Cc2ccccc2C[C@H]1C(=O)N[C@@H](CCN)C(=O)Nc1ccc(Cl)c(Cl)c1F)C(C)(C)C [Compound 15-35] | > 7.30 |
| Cc1cc(NC(=O)[C@H](CCN)NC(=O)[C@@H]2Cc3ccccc3CN2C(=O)CCC(=O)N2CCC(C)(C)CC2)ncc1Cl [Compound 12-159] | > 7.30 |
| CN(C(=O)CCC(=O)N1Cc2ccccc2C[C@H]1C(=O)N[C@@H](CCN)C(=O)Nc1ccc(Cl)c(Cl)c1F)C(C)(C)C [Compound 15-53] | 6.60 to 7.30 |
| O=C(CCC(=O)N1Cc2ccccc2C[C@H]1C(=O)N[C@@H](CCN1CCC(F)(F)C1)C(=O)Nc1ccc(Cl)c(Cl)c1F)c1ccccc1 [Compound 23-4] | 6.60 to 7.30 |
| NCC[C@H](NC(=O)[C@@H]1Cc2ccccc2CN1C(=O)CCC(=O)N1CCCC[C@@H]1CO)C(=O)Nc1ccc(Cl)c(Cl)c1F [Compound 15-18] | > 7.30 |
| CC1(C)CCCCN1C(=O)CCC(=O)N1Cc2ccccc2C[C@H]1C(=O)N[C@@H](CCN1CCC(O)CC1)C(=O)Nc1ccc(Cl)c(Cl)c1F [Compound 26-1] | > 7.30 |
| NCC[C@H](NC(=O)[C@@H]1Cc2ccccc2CN1C(=O)CCC(=O)c1ccccc1)C(=O)Nc1cccc(Cl)c1C(F)(F)F [Compound 14-16] | 6.30 to 6.60 |

Kindly consider the entry below.
Enquiry: Fill in: pEC50 of CCc1c(Cl)ccc(NC(=O)[C@H](CCN)NC(=O)[C@@H]2Cc3ccccc3CN2C(=O)CCC(=O)c2ccccc2)c1Cl [Compound 14-21] is ___
Return: 6.60 to 7.30
